The values you see were collected from patent US20220064275A1.

Examples of binders with documented Kd follow.
- system under test: T1, human LTBP1-proTGFβ1 complex (human, UniProt Q14766 873-1507)
- T1 construct: range 873-1507; biotinylated in Octet and MSD-SET; also called hLTBP1-proTGFβ1; hLTBP1
- T1 sequence (Q14766 873-1507 limits assumed, chain 1 of 2): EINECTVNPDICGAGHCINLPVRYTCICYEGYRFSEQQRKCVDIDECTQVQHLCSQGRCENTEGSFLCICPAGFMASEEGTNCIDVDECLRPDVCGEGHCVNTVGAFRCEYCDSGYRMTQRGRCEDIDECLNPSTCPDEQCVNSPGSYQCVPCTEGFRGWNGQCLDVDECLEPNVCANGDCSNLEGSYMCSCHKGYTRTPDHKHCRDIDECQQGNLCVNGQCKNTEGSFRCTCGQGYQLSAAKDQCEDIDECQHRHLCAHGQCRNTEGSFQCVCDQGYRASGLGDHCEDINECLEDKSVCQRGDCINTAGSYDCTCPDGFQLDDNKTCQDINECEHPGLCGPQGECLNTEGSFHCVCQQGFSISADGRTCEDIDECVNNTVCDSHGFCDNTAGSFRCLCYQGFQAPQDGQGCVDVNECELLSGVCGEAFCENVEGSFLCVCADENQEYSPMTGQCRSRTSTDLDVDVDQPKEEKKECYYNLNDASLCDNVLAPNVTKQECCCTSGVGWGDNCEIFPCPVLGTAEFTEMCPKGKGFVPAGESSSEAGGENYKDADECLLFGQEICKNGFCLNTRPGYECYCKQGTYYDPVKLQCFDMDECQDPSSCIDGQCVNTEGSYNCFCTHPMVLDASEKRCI
- T1 sequence (chain, as listed by the source limits assumed, chain 2 of 2): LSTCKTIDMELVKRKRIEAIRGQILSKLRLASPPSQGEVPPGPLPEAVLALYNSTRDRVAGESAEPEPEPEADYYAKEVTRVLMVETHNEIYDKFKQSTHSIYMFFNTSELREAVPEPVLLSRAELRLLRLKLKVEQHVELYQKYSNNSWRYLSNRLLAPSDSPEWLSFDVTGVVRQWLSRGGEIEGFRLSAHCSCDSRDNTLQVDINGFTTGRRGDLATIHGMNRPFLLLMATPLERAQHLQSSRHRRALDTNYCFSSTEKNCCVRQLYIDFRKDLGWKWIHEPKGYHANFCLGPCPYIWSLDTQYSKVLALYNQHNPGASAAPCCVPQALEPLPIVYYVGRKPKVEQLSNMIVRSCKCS
- procedure text: MSD-SET, solution equilibrium titration
experimental endpoint: Kd (pM)

binder: Ab22 (antibody, IgG4, V domains shown) VH: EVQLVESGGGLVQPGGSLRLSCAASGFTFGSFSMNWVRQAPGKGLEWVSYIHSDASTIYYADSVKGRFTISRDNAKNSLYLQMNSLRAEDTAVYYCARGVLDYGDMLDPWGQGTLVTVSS VL: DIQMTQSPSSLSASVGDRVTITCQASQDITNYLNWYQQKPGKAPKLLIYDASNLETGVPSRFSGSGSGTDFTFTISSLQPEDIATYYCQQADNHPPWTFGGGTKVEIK
experimental endpoint: Kd
endpoint result: 50

binder: Ab4 (antibody, IgG4, V domains shown, also called parental lead antibody of Ab6) VH: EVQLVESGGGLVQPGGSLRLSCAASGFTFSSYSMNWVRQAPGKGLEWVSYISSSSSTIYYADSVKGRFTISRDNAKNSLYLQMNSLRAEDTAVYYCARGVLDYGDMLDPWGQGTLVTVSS VL: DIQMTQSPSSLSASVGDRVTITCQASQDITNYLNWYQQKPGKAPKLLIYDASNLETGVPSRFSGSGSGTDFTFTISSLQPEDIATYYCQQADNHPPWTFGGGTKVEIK
experimental endpoint: Kd
endpoint result: 4600

binder: Ab33 (antibody, IgG4, V domains shown) VH: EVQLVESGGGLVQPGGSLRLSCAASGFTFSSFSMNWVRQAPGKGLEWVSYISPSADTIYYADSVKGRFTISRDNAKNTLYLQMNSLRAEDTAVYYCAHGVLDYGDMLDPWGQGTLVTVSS VL: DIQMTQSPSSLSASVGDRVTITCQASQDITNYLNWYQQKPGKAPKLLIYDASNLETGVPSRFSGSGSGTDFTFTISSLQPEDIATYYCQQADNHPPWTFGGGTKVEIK
experimental endpoint: Kd
endpoint result: 11

binder: Ab24 (antibody, IgG4, V domains shown) VH: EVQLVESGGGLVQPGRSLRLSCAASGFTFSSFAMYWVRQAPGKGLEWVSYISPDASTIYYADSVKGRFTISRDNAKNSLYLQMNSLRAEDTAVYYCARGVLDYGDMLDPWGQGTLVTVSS VL: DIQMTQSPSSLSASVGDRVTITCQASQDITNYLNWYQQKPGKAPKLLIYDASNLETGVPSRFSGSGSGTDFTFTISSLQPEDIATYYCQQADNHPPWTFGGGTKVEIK
experimental endpoint: Kd
endpoint result: 24
